Assay: PK analysis in male Sprague-Dawley rats
Assay type: in vivo
Settings: male, Sprague-Dawley, plasma, iv; rat, i.v. 6 mg/kg, hydrochloride salt forms; read-out: Vss

{"Structure Smiles": "NC(=O)c1ccc(OCCNC[C@H](O)COc2ccc3c(c2)OC[C@@H](COCC2CC2)O3)cc1", "Vd, L/kg": 3.6}
{"Structure Smiles": "O=C1NCc2cc(OCCNC[C@H](O)COc3ccc4c(c3)OC[C@@H](COCC3CC3)O4)ccc21", "Vd, L/kg": 5}

###

Lab note: Ki readings collected with 5-HT2A (Homo sapiens) for the following compounds.
Sequence (P28223 whole entry): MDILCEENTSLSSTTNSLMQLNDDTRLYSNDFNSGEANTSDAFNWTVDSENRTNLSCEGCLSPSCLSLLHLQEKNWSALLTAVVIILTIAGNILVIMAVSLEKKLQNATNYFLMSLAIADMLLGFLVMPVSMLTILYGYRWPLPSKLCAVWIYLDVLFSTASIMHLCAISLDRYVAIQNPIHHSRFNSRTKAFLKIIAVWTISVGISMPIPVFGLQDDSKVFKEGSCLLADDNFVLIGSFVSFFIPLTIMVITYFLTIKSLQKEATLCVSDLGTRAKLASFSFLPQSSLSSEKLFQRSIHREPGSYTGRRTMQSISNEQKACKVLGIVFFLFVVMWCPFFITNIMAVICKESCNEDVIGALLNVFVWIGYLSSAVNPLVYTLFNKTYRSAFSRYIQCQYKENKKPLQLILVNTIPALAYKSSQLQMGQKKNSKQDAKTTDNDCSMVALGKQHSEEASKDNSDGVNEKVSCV

{"Structure Smiles": "NC(=O)c1ccc(OCCNC[C@H](O)COc2ccc3c(c2)OC[C@@H](COCC2CC2)O3)cc1", "Ki": "7.7 µM"}
{"Structure Smiles": "O=C1NCc2cc(OCCNC[C@H](O)COc3ccc4c(c3)OC[C@@H](COCC3CC3)O4)ccc21", "Ki": "5.8 µM"}

Provenance of the data: paper PMC5471521
